test: PK study of the 12 alkaloids in rat plasma after oral administration of ZJ and FZJ extract (LC–MS/MS)
Type: in vivo
protocol_conditions: 3.76 g/kg; rat plasma, oral FZJ extract, mean ± SD, n = 6; read-out: MRT0→t (converted)
Method: The time schedule included 15 time-points and six rats were sampled at each time-point. […] PK parameters of the 12 alkaloids including AUC0→t, AUC0→∞, mean retention time (MRT0→t, MRT0→∞), and elimination half-life (t1/2) were calculated with non-compartmental method by DAS 2.0 software (Mathematical Pharmacology Professional Committee of China, Shanghai, China). […] The results were expressed as arithmetic mean ± standard deviation (SD).
measurement_kind: MRT last (h)

Some compounds with known MRT last results, for comparison:
Endpoint output: MRT last of CCCCC=CCCCCCCCc1cc(=O)c2ccccc2n1C [evocarpine] . Value?
7.04

Another compound to check: O=C1NCCc2cc3c(cc21)OCO3 [noroxyhydrastinine]
3.03

Another compound to check: COc1cc2c(cc1OC)C(=O)NCC2 [corydaldine]
2.85

a: COc1cc2c(cc1OC)-c1cc3ccc4c(c3c[n+]1CC2)OCO4 [epiberberine]
b: Cn1c(=O)n(CCC2(O)C(=O)Nc3ccccc32)c(=O)c2ccccc21 (stereo not drawn) [wuchuyuamide-I]
Kindly identify the item with the lower MRT last figure among these two: a and b Please respond with the label that marks your chosen entry.
a
